Biological target: BRG-1 (Homo sapiens, UniProt P51532)
Sequence (P51532 whole entry): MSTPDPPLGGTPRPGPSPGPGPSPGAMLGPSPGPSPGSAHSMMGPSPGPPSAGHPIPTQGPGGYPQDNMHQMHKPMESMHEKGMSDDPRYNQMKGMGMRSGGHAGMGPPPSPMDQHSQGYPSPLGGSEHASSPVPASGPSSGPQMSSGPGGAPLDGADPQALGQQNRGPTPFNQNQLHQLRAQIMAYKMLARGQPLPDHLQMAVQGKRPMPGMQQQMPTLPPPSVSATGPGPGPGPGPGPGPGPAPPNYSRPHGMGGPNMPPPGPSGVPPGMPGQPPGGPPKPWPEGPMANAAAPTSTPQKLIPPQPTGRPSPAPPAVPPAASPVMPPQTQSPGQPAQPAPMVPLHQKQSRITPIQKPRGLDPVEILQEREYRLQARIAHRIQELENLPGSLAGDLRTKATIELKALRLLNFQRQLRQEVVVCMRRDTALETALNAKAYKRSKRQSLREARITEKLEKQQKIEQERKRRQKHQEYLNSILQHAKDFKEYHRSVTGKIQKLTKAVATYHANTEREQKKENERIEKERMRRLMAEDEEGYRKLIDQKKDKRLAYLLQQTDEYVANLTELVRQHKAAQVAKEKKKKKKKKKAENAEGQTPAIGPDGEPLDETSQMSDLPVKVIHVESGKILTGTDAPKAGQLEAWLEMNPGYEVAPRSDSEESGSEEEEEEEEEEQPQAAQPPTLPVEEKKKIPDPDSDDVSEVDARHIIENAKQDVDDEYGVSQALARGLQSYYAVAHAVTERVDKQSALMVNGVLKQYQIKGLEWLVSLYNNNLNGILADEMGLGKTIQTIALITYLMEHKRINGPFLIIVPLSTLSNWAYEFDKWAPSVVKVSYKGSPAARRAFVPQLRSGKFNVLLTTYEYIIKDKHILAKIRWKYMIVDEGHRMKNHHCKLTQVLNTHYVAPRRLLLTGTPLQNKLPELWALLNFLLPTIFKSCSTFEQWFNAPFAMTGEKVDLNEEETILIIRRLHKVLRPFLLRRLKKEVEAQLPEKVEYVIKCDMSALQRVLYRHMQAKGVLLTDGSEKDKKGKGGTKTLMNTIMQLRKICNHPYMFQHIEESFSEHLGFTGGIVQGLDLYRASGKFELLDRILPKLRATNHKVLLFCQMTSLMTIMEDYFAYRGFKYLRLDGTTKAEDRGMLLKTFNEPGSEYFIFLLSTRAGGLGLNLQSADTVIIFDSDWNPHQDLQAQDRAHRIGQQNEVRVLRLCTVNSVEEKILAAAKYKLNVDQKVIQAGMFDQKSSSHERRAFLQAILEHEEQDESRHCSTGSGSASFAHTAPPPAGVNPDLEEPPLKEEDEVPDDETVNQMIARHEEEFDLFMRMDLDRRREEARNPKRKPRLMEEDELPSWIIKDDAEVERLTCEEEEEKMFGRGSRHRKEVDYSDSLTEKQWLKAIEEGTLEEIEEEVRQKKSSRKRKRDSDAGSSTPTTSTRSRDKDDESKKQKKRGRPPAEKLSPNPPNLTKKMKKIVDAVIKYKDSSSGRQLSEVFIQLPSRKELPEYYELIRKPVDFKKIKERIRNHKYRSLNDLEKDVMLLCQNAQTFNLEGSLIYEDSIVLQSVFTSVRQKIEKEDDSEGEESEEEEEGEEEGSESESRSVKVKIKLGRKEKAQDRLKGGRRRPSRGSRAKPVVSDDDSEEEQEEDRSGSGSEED
Assay: ATPase catalytic activity of BRG-1 (ADP-Glo in vitro biochemical assay)
IC50 values, listed per item

### Prompt # query: IC50 of entry `CN(C)C(=O)CN(C)c1cc(-c2cccc(-c3csc(NC(=O)CNC(=O)c4ccc(N)cc4)n3)c2)ccn1`
### Response 0.1 to 1 µM

### Prompt # query: IC50 of entry `CC(C)(O)c1cccc(-c2csc(NC(=O)CNC(=O)c3ccc(N)cc3)n2)c1`
### Response 0.1 to 1 µM

### Prompt # query: IC50 of entry `CC(C)c1cc(-c2cccc(-c3csc(NC(=O)CNC(=O)c4ccc(N)cc4)n3)c2)ccn1`
### Response < 0.1 µM

### Prompt # query: IC50 of entry `CN(C)S(=O)(=O)c1cccc(C(=O)NCC(=O)Nc2nc(-c3ccc4c(c3)OCCO4)cs2)c1`
### Response 1 to 10 µM

### Prompt # query: IC50 of entry `CN(C)Cc1ccc(-c2cccc(-c3csc(NC(=O)CNC(=O)c4ccc(N)cc4)n3)c2)cc1`
### Response 0.1 to 1 µM

* * *

Let's go through some recorded pIC50 values for BRM (Homo sapiens, UniProt P51531) together.
pIC50: −log10 of the molar value.

Reference set (3 entries):
Nc1ccc(C(=O)NCC(=O)Nc2nc(-c3cccc(-c4ccnc(N)c4)c3)cs2)cc1 > 7.00
CSCC[C@H](NC(=O)c1ccc(N)cc1)C(=O)Nc1nc(-c2cccc(-c3ccnc(C)c3)c2)cs1 > 7.00
Nc1ccc(C(=O)NCC(=O)Nc2nc(-c3cccc(-c4cc[n+]([O-])cc4)c3)cs2)cc1 6.00 to 7.00

### Prompt What pIC50 appears in the records for this molecule with BRM (Homo sapiens, UniProt P51531)? `COc1ccc(-c2cccc(-c3csc(NC(=O)CNC(=O)c4ccc(N)cc4)n3)c2)cn1`
Sequence (P51531 whole entry): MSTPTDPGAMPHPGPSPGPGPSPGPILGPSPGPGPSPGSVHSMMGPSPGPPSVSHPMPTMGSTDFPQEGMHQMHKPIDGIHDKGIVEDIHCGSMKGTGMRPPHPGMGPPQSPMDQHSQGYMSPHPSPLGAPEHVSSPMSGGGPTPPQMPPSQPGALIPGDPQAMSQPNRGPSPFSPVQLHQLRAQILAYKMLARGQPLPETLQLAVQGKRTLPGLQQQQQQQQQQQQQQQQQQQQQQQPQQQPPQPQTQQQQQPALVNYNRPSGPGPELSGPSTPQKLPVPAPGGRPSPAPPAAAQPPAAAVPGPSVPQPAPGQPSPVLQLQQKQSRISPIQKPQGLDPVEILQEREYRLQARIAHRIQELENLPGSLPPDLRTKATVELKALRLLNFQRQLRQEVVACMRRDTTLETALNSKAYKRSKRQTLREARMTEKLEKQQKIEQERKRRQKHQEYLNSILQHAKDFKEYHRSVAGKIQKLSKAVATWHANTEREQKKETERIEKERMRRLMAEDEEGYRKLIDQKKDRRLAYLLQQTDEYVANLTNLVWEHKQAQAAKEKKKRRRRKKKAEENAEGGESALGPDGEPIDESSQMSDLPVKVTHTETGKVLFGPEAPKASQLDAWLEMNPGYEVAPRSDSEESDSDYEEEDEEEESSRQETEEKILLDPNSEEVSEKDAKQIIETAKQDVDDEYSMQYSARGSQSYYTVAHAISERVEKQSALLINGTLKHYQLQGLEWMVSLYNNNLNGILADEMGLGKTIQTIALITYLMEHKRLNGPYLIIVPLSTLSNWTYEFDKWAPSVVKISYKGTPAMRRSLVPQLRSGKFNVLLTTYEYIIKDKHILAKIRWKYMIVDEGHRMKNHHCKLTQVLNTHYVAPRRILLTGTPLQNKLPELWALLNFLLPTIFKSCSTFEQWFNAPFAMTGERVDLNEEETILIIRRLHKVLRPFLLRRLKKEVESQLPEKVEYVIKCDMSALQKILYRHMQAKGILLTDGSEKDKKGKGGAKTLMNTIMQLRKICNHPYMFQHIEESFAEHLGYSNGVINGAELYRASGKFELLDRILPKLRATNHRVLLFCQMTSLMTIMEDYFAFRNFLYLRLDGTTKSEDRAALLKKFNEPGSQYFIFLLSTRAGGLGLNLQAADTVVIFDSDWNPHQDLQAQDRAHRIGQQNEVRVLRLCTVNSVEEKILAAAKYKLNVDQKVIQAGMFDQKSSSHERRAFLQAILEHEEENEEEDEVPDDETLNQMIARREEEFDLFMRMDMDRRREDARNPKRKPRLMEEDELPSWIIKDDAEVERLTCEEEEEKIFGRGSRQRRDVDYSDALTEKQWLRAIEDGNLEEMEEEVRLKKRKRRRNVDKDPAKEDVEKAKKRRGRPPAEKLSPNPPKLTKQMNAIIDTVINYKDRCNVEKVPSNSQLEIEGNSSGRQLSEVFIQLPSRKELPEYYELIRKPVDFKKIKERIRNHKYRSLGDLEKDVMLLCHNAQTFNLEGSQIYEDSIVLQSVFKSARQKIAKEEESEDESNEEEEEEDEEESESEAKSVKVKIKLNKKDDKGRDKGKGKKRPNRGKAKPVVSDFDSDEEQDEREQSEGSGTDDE
### Response 6.00 to 7.00

* * *

Molecular target: BRG-1 (Homo sapiens, UniProt P51532)
Experiment: ATPase catalytic activity of BRG-1 (ADP-Glo in vitro biochemical assay)
Conditions: Table 6
BRG1 Max % Inhibition values, listed per item

Reference set (6 entries):
CSCC[C@H](NC(=O)c1ccc(N)cc1)C(=O)Nc1nc(-c2cccc(-c3nnco3)c2)cs1 >95%
CNCc1cc(-c2cccc(-c3csc(NC(=O)CNC(=O)c4ccc(N)cc4)n3)c2)ccn1 >90%
Nc1ccc(C(=O)NCC(=O)Nc2nc(-c3cccc(N4CCOCC4)c3)cs2)cc1 >95%
Nc1ccc(C(=O)NCC(=O)Nc2nc(-c3cccc(-c4ccncn4)c3)cs2)cc1 >95%
Nc1ccc(C(=O)NCC(=O)Nc2nc(-c3cccc(-c4ccn(C5CCOCC5)n4)c3)cs2)cc1 >95%
CNC(=O)C(C)(C)c1cc(-c2cccc(-c3csc(NC(=O)CNC(=O)c4ccc(N)cc4)n3)c2)ccn1 >95%

### Prompt What BRG1 Max % Inhibition appears in the records for this compound with BRG-1 (Homo sapiens, UniProt P51532)? `Nc1ccc(C(=O)NCC(=O)Nc2nc(-c3cccc(-c4ccn(CC(=O)O)n4)c3)cs2)cc1`
### Response >80%

### Prompt What BRG1 Max % Inhibition appears in the records for this compound with BRG-1 (Homo sapiens, UniProt P51532)? `NCc1cccc(-c2cccc(-c3csc(NC(=O)CNC(=O)c4ccc(N)cc4)n3)c2)c1`
### Response >95%

### Prompt What BRG1 Max % Inhibition appears in the records for this compound with BRG-1 (Homo sapiens, UniProt P51532)? `Nc1ccc(C(=O)NCC(=O)Nc2nc(-c3cccc(-c4cnn(CC(=O)O)c4)c3)cs2)cc1`
### Response >80%

### Prompt What BRG1 Max % Inhibition appears in the records for this compound with BRG-1 (Homo sapiens, UniProt P51532)? `CN(C)C(=O)c1ccc(-c2cccc(-c3csc(NC(=O)CNC(=O)c4ccc(N)cc4)n3)c2)cc1`
### Response >95%

### Prompt What BRG1 Max % Inhibition appears in the records for this compound with BRG-1 (Homo sapiens, UniProt P51532)? `Nc1ccc(C(=O)NCC(=O)Nc2nc(-c3cccc(N4CCS(=O)(=O)CC4)c3)cs2)cc1`
### Response >70%

### Prompt What BRG1 Max % Inhibition appears in the records for this compound with BRG-1 (Homo sapiens, UniProt P51532)? `COC(=O)N1CCC[C@H](c2csc(NC(=O)CNC(=O)c3ccc(N)cc3)n2)C1`
### Response >90%

### Prompt What BRG1 Max % Inhibition appears in the records for this compound with BRG-1 (Homo sapiens, UniProt P51532)? `CN(C)C(=O)c1cccc(-c2cccc(-c3csc(NC(=O)CNC(=O)c4ccc(N)cc4)n3)c2)c1`
### Response >95%

### Prompt What BRG1 Max % Inhibition appears in the records for this compound with BRG-1 (Homo sapiens, UniProt P51532)? `Nc1cnc(C(=O)NCC(=O)Nc2nc(-c3cccc(-c4ccncc4)c3)cs2)nc1`
### Response >90%

### Prompt What BRG1 Max % Inhibition appears in the records for this compound with BRG-1 (Homo sapiens, UniProt P51532)? `CNC(=O)c1cccc(-c2cccc(-c3csc(NC(=O)CNC(=O)c4ccc(N)cc4)n3)c2)c1`
### Response >95%

### Prompt What BRG1 Max % Inhibition appears in the records for this compound with BRG-1 (Homo sapiens, UniProt P51532)? `CN1CCN(c2cc(-c3cccc(-c4csc(NC(=O)CNC(=O)c5ccc(N)cc5)n4)c3)ccn2)CC1`
### Response >80%

### Prompt What BRG1 Max % Inhibition appears in the records for this compound with BRG-1 (Homo sapiens, UniProt P51532)? `Nc1ccc(C(=O)NCC(=O)Nc2nc(-c3cccc(-c4ccnc(C5(C(=O)O)CC5)c4)c3)cs2)cc1`
### Response >95%
